# System: MHH-ES-1 (Ewing's Sarcoma);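 note: after 72 h of two-drug dosing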
# assay.text: Bliss excess, mean over the matrix (fraction); higher = more synergy
Param threshold (0.01) applies to Bliss excess; output true when value >= threshold, false when value < threshold.

[[record]]
compound = "CCN(CCO)CCCOc1ccc2c(Nc3cc(CC(=O)Nc4cccc(F)c4)[nH]n3)ncnc2c1 [AZD2811] + C=CCn1c(=O)c2cnc(Nc3ccc(N4CCN(C)CC4)cc3)nc2n1-c1cccc(C(C)(C)O)n1 [AZD1775] (first compound max 1 µM, partner max 1 µM)"
label = "false"

[[record]]
compound = "CC(=O)Nc1cccc(-n2c(=O)n(C3CC3)c(=O)c3c(Nc4ccc(I)cc4F)n(C)c(=O)c(C)c32)c1 [Trametinib] + Cc1nc(-c2cn3c(n2)-c2ccc(-c4cnn(C(C)(C)C(N)=O)c4)cc2OCC3)n(C(C)C)n1 [Taselisib] (first compound max 1 µM, 7x7, partner max 10 µM)"
label = "true"

[[record]]
compound = "NC1(C(=O)N[C@@H](CCO)c2ccc(Cl)cc2)CCN(c2ncnc3[nH]ccc23)CC1 [Capivasertib] + CC(C)n1c(=O)n(C)c2cnc3cc(F)c(-c4ccc(OCCCN5CCCCC5)nc4)cc3c21 [AZD1390] (first compound max 10 µM, 7x7, partner max 0.3 µM)"
label = "false"

[[record]]
compound = "CC1(C)CCC(CN2CCN(c3ccc(C(=O)NS(=O)(=O)c4ccc(NCC5CCOCC5)c([N+](=O)[O-])c4)c(Oc4cnc5[nH]ccc5c4)c3)CC2)=C(c2ccc(Cl)cc2)C1 [Venetoclax] + Cc1cc2ncnn2cc1Nc1ncc2c(n1)n(C1CCOCC1)c(=O)n2C [AZD7648] (first compound max 1 µM, 7x7, partner max 10 µM)"
label = "false"

[[record]]
compound = "CC1(C)CCC(CN2CCN(c3ccc(C(=O)NS(=O)(=O)c4ccc(NCC5CCOCC5)c([N+](=O)[O-])c4)c(Oc4cnc5[nH]ccc5c4)c3)CC2)=C(c2ccc(Cl)cc2)C1 [Venetoclax] + C=CCn1c(=O)c2cnc(Nc3ccc(N4CCN(C)CC4)cc3)nc2n1-c1cccc(C(C)(C)O)n1 [AZD1775] (first compound max 1 µM, partner max 1 µM)"
label = "false"

[[record]]
compound = "O=C(c1cc(Cc2n[nH]c(=O)c3ccccc23)ccc1F)N1CCN(C(=O)C2CC2)CC1 [Olaparib] + COc1nnc2ccc(N3CCC(c4ccc(OCCN5CCN(C)C(=O)[C@H]5C)cc4)CC3)nn12 [AZD5153] (first compound max 10 µM, 7x7, partner max 1 µM)"
label = "true"

[[record]]
compound = "O=C(c1cc(Cc2n[nH]c(=O)c3ccccc23)ccc1F)N1CCN(C(=O)C2CC2)CC1 [Olaparib] + CC1(C)CCC(CN2CCN(c3ccc(C(=O)NS(=O)(=O)c4ccc(NCC5CCOCC5)c([N+](=O)[O-])c4)c(Oc4cnc5[nH]ccc5c4)c3)CC2)=C(c2ccc(Cl)cc2)C1 [Venetoclax] (first compound max 10 µM, 7x7, partner max 1 µM)"
label = "true"

